test system: 3α-hydroxysteroid oxidase; assay: Relative activities of the 3α-hydroxysteroid oxidase for various substrates; assay type: biochemical, Pseudomonas testosterone ATCC 11996; settings: substrate of the oxidase; R.A. of cholic acid being 100
measured property: R.A. (relative activity) (%)
Answer with a number only, understood to be in %.

QUERY: Would you kindly share the measured R.A. (relative activity) for CC(C)CCC[C@@H](C)[C@H]1CC[C@H]2[C@@H]3CC=C4C[C@@H](O)CC[C@]4(C)[C@H]3CC[C@]12C ?
RESULT: 0

QUERY: Would you kindly share the measured R.A. (relative activity) for C[C@]12CC[C@H]3[C@@H](CCC4=CC(=O)CC[C@@]43C)[C@@H]1CC[C@@H]2O ?
RESULT: 0

QUERY: Would you kindly share the measured R.A. (relative activity) for C[C@H](CCC(=O)O)[C@H]1CC[C@H]2[C@@H]3[C@H](O)C[C@@H]4C[C@H](O)CC[C@]4(C)[C@H]3C[C@H](O)[C@]12C ?
RESULT: 100

###

Kindly supply the reported R.A. (relative activity) values for the records listed here.
tested on: 3α-hydroxysteroid oxidase; assay: Relative activities of the 3α-hydroxysteroid oxidase for various substrates; type: biochemical, Pseudomonas testosterone ATCC 11996; settings: substrate of the oxidase; R.A. of cholic acid being 100
Answer with a number only, understood to be in %.

QUERY: Would you kindly share the measured R.A. (relative activity) for C[C@]12CCC(=O)C[C@@H]1CC[C@@H]1[C@@H]2CC[C@]2(C)C(=O)CC[C@@H]12 [5α-Androstan-3,17-dione] ?
RESULT: 0

QUERY: Would you kindly share the measured R.A. (relative activity) for C[C@]12CCC(=O)C[C@H]1CC[C@@H]1[C@@H]2CC[C@]2(C)C(=O)CC[C@@H]12 [5β-Androstan-3,17-dione] ?
RESULT: 18

QUERY: Would you kindly share the measured R.A. (relative activity) for C[C@H](CCC(=O)O)[C@H]1CC[C@H]2[C@@H]3CC[C@@H]4C[C@H](O)CC[C@]4(C)[C@H]3CC[C@]12C [Cithocholic acid] ?
RESULT: 57

QUERY: Would you kindly share the measured R.A. (relative activity) for C[C@]12CC[C@@H](O)C[C@H]1CC[C@@H]1[C@@H]2CC[C@]2(C)C(=O)CC[C@@H]12 [Ethiocholan-3α-ol-17-one] ?
RESULT: 140

QUERY: Would you kindly share the measured R.A. (relative activity) for C[C@H](CCC(=O)O)[C@H]1CC[C@H]2[C@@H]3CC[C@@H]4C[C@H](O)CC[C@]4(C)[C@H]3C[C@H](O)[C@]12C [Deoxycholic acid] ?
RESULT: 86
